Pseudovirus Neturalization reference
molecular target: SARS-CoV-2 "Gamma" Brazil P.1.B.1.1.28 full-length Spike protein on pseudovirus (SARS-CoV-2, UniProt P0DTC2 14-1273); assay: cell-based or functional assay

Some binders with known Pseudovirus Neturalization results, for comparison:
>  <BINDER>
AB-009734 (antibody, V domains shown) VH: QVHLVQSGAEVKTPGASVRVSCKASGYTFTSHYMHWVRQAPGQGLEWMGLINPSGSGTAYPQHFQGRVTMTRDTSTTTDYMDLSSLRSEDTAMYFCARMERSGAFDLWGQGTMVTVSS VL: EIVLTQSPGTLSLSPGERATLSCRASQTISSRYLAWYYQKPGQAPRLLIQGSSIRATGIPDRFSGSGSGTDFTLTISRLEPEDFAVYYCQHYGSSPPMYTFGQGTKLEIK

>  <RECORDED_VALUE>
40.6 µg/mL

$$$$
>  <BINDER>
AB-009769 (antibody, V domains shown) VH: EVQLVESGGGLVQPGGSLRLSCAASGFTFSSYWMSWVRQAPGKGLEWVANIKQDGSEKYYVDSVKGRFTISRDNAKNSLYLQMNSLRAEDTAVYYCARSPEVLWFGDPVLDNWFDPWGQGTLVTVSS VL: SYELTQPPSVSVSPGQTARITCSGDALPKQYAYWYQQKPGQAPVLVIYKDSERPSGIPERFSGSSSGTTVTLTISGVQAEDEADYYCQSADSSGTYPVVFGGGTKLTVL

>  <RECORDED_VALUE>
> 50 µg/mL

$$$$

Suppose we examine the binder AB-009281 (antibody, V domains shown) VH: EVQLVETGGGLIQPGGSLRLSCAASGFTVSSNYMSWVRQAPGKGLEWVSVIYSGGSTYYADSVKGRFTISRDNSKNTLYLQMNSLRAEDTAVYYCARDLYYYGMDVWGQGTTVTVSS VL: DIQLTQSPSFLSASVGDRVTITCRASQGISSYLAWYQQKPGKAPKLLIYAASTLQSGVPSRFSGSGSGTEFTLTISSLQPEDFATYYCQQLNSYPTFGQGTKVEIK ; what Pseudovirus Neturalization value has been reported?
> 50 µg/mL

Suppose we examine the binder AB-009620 (antibody, V domains shown) VH: QITLKESGPTLVKPTQTLTLTCTFSGFSLSTSGVGVGWIRQPPGKALEWLALIYWDDDKRYSPSLKSRLTITKDTSKNQVVLTMTNMDPVDTATYYCAHHEVATVFDYWGQGTLVTVSS VL: QSALTQPASVSGSPGQSITISCTGTSSDVGAYNYVSWYQQHPGKAPKLMIYEVSNRPSGVSNRFSGSKSGNTASLTISGLQAEDEADYYCSSYTSSSTVFGGGTKLTVL ; what Pseudovirus Neturalization value has been reported?
0.327 µg/mL

Suppose we examine the binder AB-009271 (antibody, V domains shown) VH: EVQLVESGGGLIQPGGSLRLSCAASGFIVSSNYMSWVRQAPGKGLEWVSVIYSGGSTYYADSVKGRFTISRDNSKNTLYLQMNSLRAEDTAVYYCARDYGDFYFDYWGQGTLVTVSS VL: EIVMTQSPATLSVSPGERATLSCRASQSVSSNLAWYQQKPGQAPRLLIYGASTRATGIPARFSGSGSGTEFTLTISSLQSEDFAVYYCQQYYNWPRTFGQGTKVEIK ; what Pseudovirus Neturalization value has been reported?
> 50 µg/mL

Suppose we examine the binder AB-009346 (antibody, V domains shown) VH: EVQLVESGGGVVRPGGSLRLSCAASGFTFDDYGMSWVRQAPGKGLEWVSGINWNGGSTGYADSVKGRFTISRDNAKNSLYLQMNSLRAEDTALYYCARWPLLGISGYYHYYMDVWGKGTTVTVSS VL: QSALTQPRSVSGSPGQSVTISCTGTSSDVGGYNYVSWYQQHPGKAPKLMIYDVSKRPSGVPDRFSGSKSGNTASLTISGLQAEDEADYYCCSYAGSYTLLFGGGTKLIVL ; what Pseudovirus Neturalization value has been reported?
> 50 µg/mL

From: patent US20240327505A1
